# protocol_notes: Pharmacokinetic study B: methadone patch, human plasma
# Format: in vivo
# run_conditions: topical, Study B: 5 × 5 cm SIS patch (Methadone 10 weight %), 25 mg Methadone free base, applied 12 hours, left leg inner side above knee, 55 kg person, 18 hr, read-out: Concentrations of Methadone in Human Plasma Samples
quantity_measured: concentration at 18 h (ng/mL)
Numbers only, in ng/mL.

Ask: Given the molecule CCC(=O)C(CC(C)N(C)C)(c1ccccc1)c1ccccc1 (stereo not shown) [Methadone, 6-dimethylamino-4,4-diphenyl-3-hepatone] , what is its reported concentration at 18 h?
Result: 4.95

----------
# protocol_notes: Study 1: concentrations of methadone in rat plasma, topical administration versus intravenous injection
# Format: in vivo
# run_conditions: rat, in vivo, 0.2 mL of 10% methadone solution; Study 1 Group C: topical dorsal flank, 1 × 1 cm gauze pad with 0.2 mL Test Article 3 (Methadone-DEET Solution 10%); 60 min; individual rats C1-C3; read-out: Concentrations of Methadone in Rat Plasma Samples
quantity_measured: concentration at 60 min (ng/mL)
Give bare numbers, in ng/mL.

Ask: Fill blank: measured concentration at 60 min of the compound CCC(=O)C(CC(C)N(C)C)(c1ccccc1)c1ccccc1 (stereo not shown) [Methadone, 6-dimethylamino-4,4-diphenyl-3-hepatone] is ____.
Result: 3.88
